- tgt: GSK3b (GST-full length GSK3b) (Homo sapiens (Human), UniProt P49841)
- Sequence (P49841 whole entry): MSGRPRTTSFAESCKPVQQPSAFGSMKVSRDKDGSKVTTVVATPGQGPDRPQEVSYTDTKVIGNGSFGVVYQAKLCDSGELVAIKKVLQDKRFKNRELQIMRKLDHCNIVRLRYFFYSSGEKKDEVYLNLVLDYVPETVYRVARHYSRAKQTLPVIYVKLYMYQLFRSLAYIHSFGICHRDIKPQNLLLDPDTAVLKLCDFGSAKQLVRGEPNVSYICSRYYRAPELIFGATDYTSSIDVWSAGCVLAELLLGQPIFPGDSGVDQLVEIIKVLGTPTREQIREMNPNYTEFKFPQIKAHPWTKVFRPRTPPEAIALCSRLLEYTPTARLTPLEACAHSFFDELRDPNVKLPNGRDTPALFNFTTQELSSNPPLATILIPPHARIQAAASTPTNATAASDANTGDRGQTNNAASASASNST
- experimental_details: GSK3b TR-FRET kinase assay
- Type: biochemical
- test_conditions: 1 nM GSK3b, 2 μM ATP, 30 minute preincubation, Table 16; read-out: GSK3-B TR-FRET BIOCHEMICAL (TR-FRET); IC50
property_name: IC50

Check out these entries, answers already filled in.
molecule	tgt	IC50
O=C1CC(c2ccccc2)CC2=C1C1(CCOCC1)c1c[nH]nc1N2 (centres unmarked) [Compound 893309]	GSK3b (GST-full length GSK3b) (Homo sapiens (Human), UniProt P49841)	1000 to 5000 nM
CC[C@@]1(c2cccc(N(C)c3ncccn3)c2)C2=C(CC(C)(C)C2=O)Nc2n[nH]cc21 [Compound 952212]	GSK3b (GST-full length GSK3b) (Homo sapiens (Human), UniProt P49841)	100 to 1000 nM
CC[C@]1(c2cccc(-c3ccncc3C(F)(F)F)c2)C2=C(CC(C)(C)C2=O)Nc2n[nH]cc21 [Compound 952757]	GSK3b (GST-full length GSK3b) (Homo sapiens (Human), UniProt P49841)	> 5000 nM
CCC1(c2cccc(Nc3ncccn3)c2)C2=C(CC(C)(C)CC2=O)Nc2n[nH]cc21 (centres unmarked) [Compound 913334]	GSK3b (GST-full length GSK3b) (Homo sapiens (Human), UniProt P49841)	100 to 1000 nM
CC[C@@]1(c2cccc(C(C)C)c2)C2=C(CC(C)(C)NC2=O)Nc2n[nH]c(C)c21 [Compound 949646]	GSK3b (GST-full length GSK3b) (Homo sapiens (Human), UniProt P49841)	> 5000 nM

Give IC50 for CCC1(c2cccc(N(CCc3ccccc3)C(C)=O)c2)C2=C(CC(C)(C)CC2=O)Nc2n[nH]cc21 (centres unmarked) [Compound 912064]
≤ 100 nM

For the molecule CC1(C)CC(=O)C2=C(C1)Nc1n[nH]cc1C21CCCNCC1 (centres unmarked) [Compound 889571] , give its measured IC50 value.
> 5000 nM

Fill in IC50 for record CCC1(c2cccc(-c3ccnc(C)c3C)c2)C2=C(CC(C)(C)CC2=O)Nc2n[nH]cc21 (centres unmarked) [Compound 913347]
≤ 100 nM
